Read-out record for cathepsin L (Rattus norvegicus): IC50
Write the numeric value and append its unit.

Illustrative cases are given below, each with its answer.
| compound | target or system | value reported |
| --- | --- | --- |
| CCCC[C@H](NC(=O)[C@H](CC(C)C)NC(=O)OCc1ccccn1)C(=O)CSCc1ccco1 [28 (No. 59)] | cathepsin L (Rattus norvegicus) | 15 µM |
| CC(C)C[C@H](NC(=O)COc1cccc2ccccc12)C(=O)N[C@@H](Cc1ccccc1)C(=O)CSCc1ccco1 [170 (No. 364)] | cathepsin L (Rattus norvegicus) | 8.6 µM |
| CC(C)C[C@H](NC(=O)COc1ccccc1Cl)C(=O)N[C@@H](Cc1ccccc1)C(=O)CSCc1ccco1 [167 (No. 354)] | cathepsin L (Rattus norvegicus) | 1.4 µM |

Now, please, on to the next compound.
Request: Find IC50 for CCCC[C@H](NC(=O)[C@H](CC(C)C)NC(=O)Cc1cccc2ccccc12)C(=O)CSCc1ccco1 [33 (No. 76)] on cathepsin L (Rattus norvegicus) and write it down.
Sequence (P07154 114-334): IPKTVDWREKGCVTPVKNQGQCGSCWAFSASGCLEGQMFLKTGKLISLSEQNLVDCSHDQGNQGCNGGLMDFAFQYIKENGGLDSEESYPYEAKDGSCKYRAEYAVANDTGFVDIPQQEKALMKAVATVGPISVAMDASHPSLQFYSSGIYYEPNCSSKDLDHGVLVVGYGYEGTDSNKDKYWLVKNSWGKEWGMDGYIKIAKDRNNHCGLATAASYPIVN
Response: 0.27 µM

###

target: m-calpain (Rattus norvegicus, UniProt Q07009); construct: m-calpain was purified from rat brain; from tissue; host or cells: rat brain; test: Thiol protease inhibitory activity, m-calpain purified from rat brain; format: biochemical; details: Table 3
Sequence (Q07009 20-700 limits assumed): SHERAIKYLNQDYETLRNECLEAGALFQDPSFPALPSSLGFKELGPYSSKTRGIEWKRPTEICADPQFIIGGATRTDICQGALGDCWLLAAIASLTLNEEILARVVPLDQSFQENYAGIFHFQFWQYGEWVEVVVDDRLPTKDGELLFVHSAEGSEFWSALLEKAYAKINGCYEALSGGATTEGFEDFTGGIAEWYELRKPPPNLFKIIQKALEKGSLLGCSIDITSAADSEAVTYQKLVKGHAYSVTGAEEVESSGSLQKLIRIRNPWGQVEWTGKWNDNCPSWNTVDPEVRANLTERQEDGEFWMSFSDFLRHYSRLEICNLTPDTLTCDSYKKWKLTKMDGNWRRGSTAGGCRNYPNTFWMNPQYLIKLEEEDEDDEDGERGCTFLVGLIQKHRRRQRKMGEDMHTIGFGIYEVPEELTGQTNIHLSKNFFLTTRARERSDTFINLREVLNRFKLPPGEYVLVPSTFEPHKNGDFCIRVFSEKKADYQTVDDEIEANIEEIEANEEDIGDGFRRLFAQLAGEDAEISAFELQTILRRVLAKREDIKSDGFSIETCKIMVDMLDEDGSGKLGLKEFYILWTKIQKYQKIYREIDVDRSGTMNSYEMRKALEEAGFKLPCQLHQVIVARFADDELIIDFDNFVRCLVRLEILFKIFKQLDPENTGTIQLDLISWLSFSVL
Sequence (Q64537 whole entry partner): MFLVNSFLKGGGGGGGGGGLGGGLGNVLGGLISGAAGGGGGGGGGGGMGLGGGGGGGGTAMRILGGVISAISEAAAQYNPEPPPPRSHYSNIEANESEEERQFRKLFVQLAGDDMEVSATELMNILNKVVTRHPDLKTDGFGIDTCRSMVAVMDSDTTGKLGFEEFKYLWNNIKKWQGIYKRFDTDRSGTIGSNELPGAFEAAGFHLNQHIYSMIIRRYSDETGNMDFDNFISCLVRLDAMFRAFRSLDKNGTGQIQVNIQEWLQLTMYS
Entries and their measured pIC50 follow.
To interpret pIC50, take it as minus log10 of a concentration measured in moles per litre.

The cases that follow already have their pIC50 on record.
| compound | value reported |
| --- | --- |
| CCCC[C@H](NC(=O)[C@H](CC(C)C)NC(=O)COc1ccccc1)C(=O)C[S+]([O-])Cc1ccco1 (stereo partly shown) [4 (No. 83)] | 4.92 |
| CCCC[C@H](NC(=O)[C@H](CC(C)C)NC(=O)Cc1ccccc1)C(=O)CSCc1ccco1 [30 (No. 66)] | 5.29 |
| CCCC[C@H](NC(=O)[C@H](CC(C)C)NC(=O)COc1ccc(Cl)cc1Cl)C(=O)CSCc1ccco1 [42 (No. 92)] | 4.64 |

Note: attention shifts to another entry.
Request: # return recorded pIC50 for entry CCCC[C@H](NC(=O)[C@H](CC(C)C)NC(=O)OCC1CCCCC1)C(=O)CSCc1ccco1 [21 (No. 46)]
Response: 5.33

###

cathepsin B (Bos taurus, UniProt P07688) pIC50 data
Please keep in mind that pIC50 is minus log10 of the molar concentration; only the number is needed.

Solved cases (5 shown):
| compound | target or system | value reported |
| --- | --- | --- |
| CCCC[C@H](NC(=O)[C@H](CC(C)C)NC(=O)c1ccc2ccccc2c1)C(=O)CSCc1ccco1 [82 (No. 162)] | cathepsin B (Bos taurus, UniProt P07688) | 5.57 |
| CC(C)C[C@H](NC(=O)COc1ccccc1)C(=O)N[C@@H](Cc1ccc(Cl)cc1)C(=O)CSCc1ccco1 [197 (No. 511)] | cathepsin B (Bos taurus, UniProt P07688) | 5.22 |
| CCCC[C@H](NC(=O)[C@H](CC(C)C)NC(=O)c1cc(=O)c2ccccc2o1)C(=O)CSCc1ccco1 [94 (No. 188)] | cathepsin B (Bos taurus, UniProt P07688) | 5.96 |
| CC(C)C[C@H](NC(=O)OCc1ccccc1)C(=O)N[C@@H](Cc1ccccc1)C(=O)CN(C)C [190 (No. 465)] | cathepsin B (Bos taurus, UniProt P07688) | 5.80 |
| CCCC[C@H](NC(=O)[C@H](CC(C)C)NC(=O)COc1ccccc1)C(=O)CSCc1ccco1 [3 (No. 82)] | cathepsin B (Bos taurus, UniProt P07688) | 6.15 |

Request: Report measured pIC50; entry is CCCC[C@H](NC(=O)[C@H](CC(C)C)NC(=O)COc1cccc(F)c1)C(=O)CSCc1ccco1 [37 (No. 86)]
Response: 6.15

Request: Supply measured pIC50 of CC(C)C[C@H](NC(=O)c1cc2ccccc2o1)C(=O)N[C@@H](Cc1ccccc1)C(=O)CSCc1ccco1 [174 (No. 382)] in your reply.
Response: 4.64

Request: Hello, please tell me recorded pIC50 for this one: CCCC[C@H](NC(=O)[C@H](CC(C)C)NC(=O)COc1cccc(Cl)c1Cl)C(=O)CSCc1ccco1 [41 (No. 91)]
Response: 5.24

Request: Return value of pIC50 for input CCCC[C@H](NC(=O)[C@H](CC(C)C)NC(=O)COc1ccccc1)C(=O)C[S+]([O-])Cc1ccco1 (stereo partly drawn) [4 (No. 83)] , no commentary.
Response: 7.36

###

target: m-calpain (Rattus norvegicus, UniProt Q07009); construct: m-calpain was purified from rat brain; from tissue; host or cells: rat brain; experiment: Thiol protease inhibitory activity, m-calpain purified from rat brain; type: biochemical; conditions: Table 3
parameter measured: IC50 (µM)
Express it in µM; write the number only.

| compound string | units text | IC50 |
| --- | --- | --- |
| CC(C)C[C@H](NC(=O)OCc1ccccc1)C(=O)N[C@@H](Cc1ccccc1)C(=O)CN(C)Cc1ccco1 | µM | 24 |
| CSCC(=O)[C@H](Cc1ccccc1)NC(=O)[C@H](CC(C)C)NC(=O)Cc1cccc2ccccc12 | µM | 26 |
| CCCC[C@H](NC(=O)[C@H](CC(C)C)NC(=O)c1ccccc1)C(=O)CSCc1ccco1 | µM | 14 |

Now look at this one.
Request: Please supply the value of reported IC50 for the item CCCC[C@H](NC(=O)[C@H](CC(C)C)NC(=O)COc1cccc(C)c1)C(=O)CSCc1ccco1
Response: 11

###

Please consider the recorded log10 IC50 for cathepsin B (Bos taurus) in what follows.
Scale: log10; quantity: IC50; unit before log: nM

Below, each entry is followed by its recorded log10 IC50 result.
| compound | target or system | value reported |
| --- | --- | --- |
| CCCC[C@H](NC(=O)[C@H](CC(C)C)NC(=O)COc1ccc(Cl)cc1C)C(=O)CSCc1ccco1 [46 (No. 100)] | cathepsin B (Bos taurus) | 2.60 |
| CC(C)C[C@H](NC(=O)COc1ccccc1Cl)C(=O)N[C@@H](Cc1ccccc1)C(=O)CSCc1ccco1 [167 (No. 354)] | cathepsin B (Bos taurus) | 4.48 |
| CCC(C)[C@H](NC(=O)OCC1CCCCC1)C(=O)N[C@@H](Cc1ccccc1)C(=O)CSCc1ccco1 (stereo partly drawn) [135 (No. 288)] | cathepsin B (Bos taurus) | 2.49 |
| CCCC[C@H](NC(=O)[C@H](CC(C)C)NC(=O)COc1ccccc1F)C(=O)CSCc1ccco1 [36 (No. 85)] | cathepsin B (Bos taurus) | 3.69 |
| CCCC[C@H](NC(=O)[C@H](CC(C)C)NC(=O)CSc1ccccc1)C(=O)CSCc1ccco1 [49 (No. 107)] | cathepsin B (Bos taurus) | 2.77 |

Here is the next item to consider.
Request: Item CC(C)C[C@H](NC(=O)COc1ccccc1)C(=O)N[C@@H](CCc1ccccc1)C(=O)CSCc1ccco1 [206 (No. 543)] : provide log10 IC50
Response: 2.91

###

target: UniProtKB P00784; experiment: Thiol protease inhibitory activity, papain (P-3125, Sigma); assay type: biochemical; conditions: Table 3; read-out: IC50 papain
Sequence (P00784 134-345): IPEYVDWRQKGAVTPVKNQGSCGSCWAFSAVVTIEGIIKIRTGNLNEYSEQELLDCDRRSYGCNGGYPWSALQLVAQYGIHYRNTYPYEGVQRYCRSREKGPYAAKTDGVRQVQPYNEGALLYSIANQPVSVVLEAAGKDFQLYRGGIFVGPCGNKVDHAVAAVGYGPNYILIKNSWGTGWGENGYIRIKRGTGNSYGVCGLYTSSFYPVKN
parameter measured: IC50 (nM)
State the answer as a number, implicitly in nM.

| compound | value reported |
| --- | --- |
| CC(C)C[C@H](NC(=O)Cc1cccc2ccccc12)C(=O)N[C@@H](Cc1ccccc1)C(=O)CSCc1ccco1 | 380 |
| CCCC[C@H](NC(=O)[C@H](CC(C)C)NC(=O)COc1c(Cl)cc(Cl)cc1Cl)C(=O)CSCc1ccco1 | 370 |
| CCCC[C@H](NC(=O)[C@H](CC(C)C)NC(=O)OCC1CCCCC1)C(=O)CSCc1ccco1 | 130 |
| CCCC[C@H](NC(=O)[C@H](CC(C)C)NC(=O)c1ccccc1)C(=O)CSCc1ccco1 | 380 |
| CC(C)C[C@H](NC(=O)OCc1ccccc1)C(=O)N[C@@H](Cc1ccccc1)C(=O)CN(C)C | 40000 |
| CCCC[C@H](NC(=O)[C@H](CC(C)C)NC(=O)COC1CCCCC1)C(=O)CSCc1ccco1 | 210 |

// moving on: another record for IC50
Request: Output IC50 of CCCC[C@H](NC(=O)[C@H](CC(C)C)NC(=O)Cc1ccc(F)cc1)C(=O)CSCc1ccco1
Response: 1400

###

molecular target: m-calpain (Rattus norvegicus, UniProt Q07009); construct: m-calpain was purified from rat brain; from tissue; host or cells: rat brain; assay: Thiol protease inhibitory activity, m-calpain purified from rat brain; type: biochemical; conditions: Table 3
parameter measured: IC50 (µM)
Hi! Could you send only the number? It should be in µM, unit omitted.

Consider the worked cases shown below.
| molecule | parameter measured | value reported |
| --- | --- | --- |
| CC(C)C[C@H](NC(=O)c1cc2ccccc2o1)C(=O)N[C@@H](Cc1ccccc1)C(=O)CSCc1ccco1 | IC50 | 16 |
| CC(C)C[C@H](NC(=O)COc1ccccc1)C(=O)NC(Cc1cccc2ccccc12)C(=O)CSCc1ccco1 (stereo partly shown) | IC50 | 19 |
| CCCC[C@H](NC(=O)[C@H](CC(C)C)NC(=O)COC1CCCCC1)C(=O)CSCc1ccco1 | IC50 | 8.6 |
| CC(C)C[C@H](NC(=O)Cc1csc2ccccc12)C(=O)N[C@@H](Cc1ccccc1)C(=O)CSCc1ccco1 | IC50 | 3.7 |

Request: Give reported IC50 value for CC(C)C[C@H](NC(=O)COc1cccc2ccccc12)C(=O)N[C@@H](Cc1ccccc1)C(=O)CSCc1ccco1
Response: 19

Request: Specify measured IC50 for CCC(C)[C@H](NC(=O)OCC1CCCCC1)C(=O)N[C@@H](Cc1ccccc1)C(=O)CSCc1ccco1 (stereo partly shown) .
Response: 3.2

Request: # return recorded IC50 for entry CCCC[C@H](NC(=O)[C@H](CC(C)C)NC(=O)CSc1ccccc1)C(=O)CSCc1ccco1
Response: 11
